- assay-system: T1, human GITR (amino acids M1-V241, NCBI Accession #NP_004186.1) expressed on cells (human, UniProt Q9Y5U5 26-241)
- T1 sequence: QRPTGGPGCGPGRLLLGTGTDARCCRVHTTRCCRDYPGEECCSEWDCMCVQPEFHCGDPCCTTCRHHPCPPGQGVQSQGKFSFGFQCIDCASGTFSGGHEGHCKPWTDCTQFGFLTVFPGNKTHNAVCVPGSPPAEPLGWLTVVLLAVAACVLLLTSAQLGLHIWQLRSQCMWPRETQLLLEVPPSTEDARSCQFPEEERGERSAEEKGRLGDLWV
- assay-name: cell-based or functional assay
measurement-label: fold activation, T-cell proliferation, 33 nM, FcgR anchored, donor 2 (fold)
Dear colleague, please return just the value in fold, with no unit written.

The examples below pair each entry with its known result.
>>> endpoint_value("H4H14469P (antibody, human IgG4, V domains shown, human IgG4 (H4H)) VH: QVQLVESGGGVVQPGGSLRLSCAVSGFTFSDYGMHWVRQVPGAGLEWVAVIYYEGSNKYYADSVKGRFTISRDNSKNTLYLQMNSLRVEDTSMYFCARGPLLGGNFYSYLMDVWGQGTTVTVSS VL: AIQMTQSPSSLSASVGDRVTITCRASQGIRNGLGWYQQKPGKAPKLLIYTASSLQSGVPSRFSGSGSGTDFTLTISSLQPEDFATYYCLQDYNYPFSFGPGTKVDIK")
1
>>> endpoint_value("H4H14470P (antibody, human IgG4, V domains shown, human IgG4 (H4H)) VH: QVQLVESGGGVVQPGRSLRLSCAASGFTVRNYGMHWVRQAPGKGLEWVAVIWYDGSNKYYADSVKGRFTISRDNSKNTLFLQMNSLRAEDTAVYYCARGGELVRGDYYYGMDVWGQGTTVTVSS VL: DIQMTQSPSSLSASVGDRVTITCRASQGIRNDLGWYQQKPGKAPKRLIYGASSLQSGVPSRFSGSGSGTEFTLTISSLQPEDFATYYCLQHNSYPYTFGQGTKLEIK")
1

Inquiry: Find the recorded fold activation, T-cell proliferation, 33 nM, FcgR anchored, donor 2 belonging to H4H14525P (antibody, human IgG4, V domains shown, human IgG4 (H4H)) VH: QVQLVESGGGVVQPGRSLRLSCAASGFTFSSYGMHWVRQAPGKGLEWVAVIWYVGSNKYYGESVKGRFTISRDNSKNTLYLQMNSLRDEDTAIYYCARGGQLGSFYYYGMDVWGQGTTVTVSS VL: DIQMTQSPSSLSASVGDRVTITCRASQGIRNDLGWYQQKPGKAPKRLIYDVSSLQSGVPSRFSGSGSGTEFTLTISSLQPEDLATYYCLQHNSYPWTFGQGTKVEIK and report it.
Reply text: 0.8

Inquiry: Same read-out for H4H14528P (antibody, human IgG4, V domains shown, human IgG4 (H4H)) VH: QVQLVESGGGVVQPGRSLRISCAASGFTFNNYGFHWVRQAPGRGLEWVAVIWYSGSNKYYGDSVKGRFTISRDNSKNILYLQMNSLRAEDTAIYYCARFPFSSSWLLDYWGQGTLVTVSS VL: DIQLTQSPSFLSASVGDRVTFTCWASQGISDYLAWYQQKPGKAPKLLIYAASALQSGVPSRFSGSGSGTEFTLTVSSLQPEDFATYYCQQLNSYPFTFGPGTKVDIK ?
Reply text: 1.5

Inquiry: Same read-out for H4H14475P (antibody, human IgG4, V domains shown, human IgG4 (H4H)) VH: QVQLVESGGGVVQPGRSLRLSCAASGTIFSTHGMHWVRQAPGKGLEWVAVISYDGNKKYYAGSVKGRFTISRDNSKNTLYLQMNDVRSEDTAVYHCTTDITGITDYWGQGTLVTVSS VL: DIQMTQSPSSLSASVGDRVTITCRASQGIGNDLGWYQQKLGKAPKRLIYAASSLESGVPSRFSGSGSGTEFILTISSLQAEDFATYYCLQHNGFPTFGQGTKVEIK ?
Reply text: 1.3
